experiment: Buffer Stability (37° C.); settings: pH 4.5
Buffer Stability (37° C.) % Remaining (at 16-23 hours) pH 4.5 overview
Enter your answer as a number in %; do not include the unit.

Here is how some compounds turned out for Buffer Stability (37° C.) % Remaining (at 16-23 hours) pH 4.5.
INSERT INTO results (line_notation, data_value) VALUES
  ('CN(C)C(=O)Oc1cc(OC(=O)N(C)C)c2c(c1)O/C(=C\c1cn(C)c3nccc(-c4ccccc4)c13)C2=O', 100),
  ('COc1ccc2c(c1)c(/C=C1\Oc3cc(OC(=O)c4ccccc4)cc(OC(=O)c4ccccc4)c3C1=O)c(C)n2CCN1CCN(C)CC1', 73),
  ('COc1ccc2[nH]c(-c3ccccc3)c(/C=C3\Oc4cc(OC(C)=O)cc(OC(C)=O)c4C3=O)c2c1', 64);

I have this compound here, CN(C)C(=O)Oc1cccc2c1C(=O)/C(=C/c1cn(C)c3nccc(N4CC5CCC(C4)O5)c13)O2 , and I need its recorded Buffer Stability (37° C.) % Remaining (at 16-23 hours) pH 4.5.
100

----------
assay: PAMPA permeability pH 7.4
readout kind: PAMPA Pe

Consider the following illustrative entries.
INSERT INTO assay_data (line_notation, data_value) VALUES
  ('COc1ccc2[nH]c(-c3ccccc3)c(C=C3Oc4cc(O)cc(O)c4C3=O)c2c1', '0 10e−6 cm/s'),
  ('CCOC(=O)CNC(=O)Oc1cc(OC(=O)NCC(=O)OCC)c2c(c1)O/C(=C\c1cn(CCCN(C)C)c3ccc(OC)cc13)C2=O', '0 10e−6 cm/s');

Quick one: PAMPA Pe for COc1ccc2[nH]c(-c3ccccc3)c(/C=C3\Oc4cc(OP(=O)(O)c5ccccc5)ccc4C3=O)c2c1 ?
0 10e−6 cm/s

Next: CCOP(=O)(OCC)Oc1ccc2c(c1)O/C(=C\c1c(-c3ccccc3)[nH]c3ccc(OC)cc13)C2=O
0 10e−6 cm/s

Same lookup for COc1ccc2c(c1)c(/C=C1\Oc3cc(OC(=O)N4CCOCC4)cc(OC(=O)N4CCOCC4)c3C1=O)cn2CCCN(C)C , please.
1.4 10e−6 cm/s

Now try CCOP(=O)(OCC)Oc1cc2c(c(OP(=O)(OCC)OCC)c1)C(=O)/C(=C/c1cn(CCCN(C)C)c3ccc(OC)cc13)O2 .
0.25 10e−6 cm/s

----------
test: Buffer Stability (37° C.); settings: pH 1
readout kind: Buffer Stability (37° C.) % Remaining (at 16-23 hours) pH 1 (%)
Give the quantity in %, number only.

Recorded results for 5 compounds are shown here.
INSERT INTO results (line_notation, data_value) VALUES
  ('COc1ccc2c(c1)c(/C=C1\Oc3cc(OC(=O)N(C)C)cc(OC(=O)N(C)C)c3C1=O)c(C)n2CCN1CCN(C)CC1', 100),
  ('COc1ccc2[nH]c(-c3ccccc3)c(/C=C3\Oc4cc(O)ccc4C3=O)c2c1', 97),
  ('COc1ccc2[nH]c(-c3ccccc3)c(/C=C3\Oc4cc(OC(=O)N(c5ccccc5)c5ccccc5)ccc4C3=O)c2c1', 100),
  ('COc1ccc2[nH]c(-c3ccccc3)c(/C=C3\Oc4cc(OC(C)=O)cc(OC(C)=O)c4C3=O)c2c1', 2),
  ('COc1ccc2c(c1)c(/C=C1\Oc3cc(OC(=O)N(c4ccccc4)c4ccccc4)cc(OC(=O)N(c4ccccc4)c4ccccc4)c3C1=O)cn2CCCN(C)C', 118);

# input compound: COc1ccc2c(c1)c(/C=C1\Oc3cc(OC(=O)C(C)(C)C)cc(OC(=O)C(C)(C)C)c3C1=O)cn2CCCN(C)C ; wanted: its Buffer Stability (37° C.) % Remaining (at 16-23 hours) pH 1
89

Same read-out for COc1ccc2c(c1)c(/C=C1\Oc3cc(OC(=O)N(C)c4ccccc4)ccc3C1=O)c(C)n2CCN1CCN(C)CC1 ?
101
